settings: in toluene, 293.15 K
OUTCOME MEASURE: solubility (mole fraction)
I only need the number, thanks.

Ask | Param item = COC(=O)C1=C(C)NC(C)=C(C(=O)OCC(C)C)C1c1ccccc1[N+](=O)[O-] (stereo unspecified) ; retrieve measured solubility (mole fraction).
Reply | 0.0026

----------
conditions: in water, 288.15 K
OUTCOME MEASURE: solubility (mole fraction)
Please give the numeric answer without any surrounding text.

Ask | Consider the compound COC(=O)C1=C(C)NC(C)=C(C(=O)OCC(C)C)C1c1ccccc1[N+](=O)[O-] (stereo unspecified) and give its measured solubility (mole fraction).
Reply | 7e-06

----------
details: in acetonitrile, 298.15 K
OUTCOME MEASURE: solubility (mole fraction)
Just the number.

Ask | Query: solubility (mole fraction); subject: COC(=O)C1=C(C)NC(C)=C(C(=O)OCC(C)C)C1c1ccccc1[N+](=O)[O-] (stereo unspecified)
Reply | 0.0169
